pKd by entry:
# systemTested: T1, EsCas13d, nuclease-dead (Eubacterium siraeum, UniProt B0MS50, R295A;H300A;R849A;H854A)
# T1 sequence: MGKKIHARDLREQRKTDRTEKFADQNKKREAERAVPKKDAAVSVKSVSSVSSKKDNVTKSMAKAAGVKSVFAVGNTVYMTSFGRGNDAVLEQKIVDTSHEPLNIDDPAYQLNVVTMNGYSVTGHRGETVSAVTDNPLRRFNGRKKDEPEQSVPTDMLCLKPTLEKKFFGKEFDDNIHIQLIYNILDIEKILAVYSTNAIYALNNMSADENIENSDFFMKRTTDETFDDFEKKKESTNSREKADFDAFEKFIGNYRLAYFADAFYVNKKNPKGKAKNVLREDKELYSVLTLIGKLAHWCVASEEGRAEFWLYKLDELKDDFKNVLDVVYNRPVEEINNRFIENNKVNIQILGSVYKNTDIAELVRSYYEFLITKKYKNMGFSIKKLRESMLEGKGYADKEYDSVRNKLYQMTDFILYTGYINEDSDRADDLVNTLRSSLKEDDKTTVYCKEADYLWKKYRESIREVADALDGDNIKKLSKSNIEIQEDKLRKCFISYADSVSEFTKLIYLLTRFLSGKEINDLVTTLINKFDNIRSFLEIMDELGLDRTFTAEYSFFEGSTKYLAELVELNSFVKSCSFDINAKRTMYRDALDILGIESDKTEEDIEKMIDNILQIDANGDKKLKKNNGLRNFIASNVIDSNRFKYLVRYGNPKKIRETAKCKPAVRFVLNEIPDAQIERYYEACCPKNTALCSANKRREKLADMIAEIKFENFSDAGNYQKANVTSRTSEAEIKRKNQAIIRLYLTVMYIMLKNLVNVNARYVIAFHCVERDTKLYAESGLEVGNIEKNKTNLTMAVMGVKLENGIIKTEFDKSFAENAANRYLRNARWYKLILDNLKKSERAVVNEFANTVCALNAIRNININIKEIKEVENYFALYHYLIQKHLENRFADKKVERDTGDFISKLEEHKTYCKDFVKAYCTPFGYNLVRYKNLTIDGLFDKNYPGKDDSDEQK
# protocolNotes: crRNA (strand 1, pre-loaded); Mg2+; 40 mM Tris-HCl pH 7.5, 150 mM NaCl, 6 mM MgCl2, 1 mM DTT, 0.1% Tween-20, 0.2 mg/ml BSA; 25 C; 10 min per concentration, then washed
# conditionLabel: tags: His6-TwinStrep-SUMO cleaved; N-terminal SNAP kept (SNAP-Surface 488); label: 3' end held by stalled T7 RNA polymerase
In plain terms, pKd is the concentration in mol/L turned into minus its base-10 logarithm.

binder | pKd
target 1 A16C,C22U (mixed) RNA 1: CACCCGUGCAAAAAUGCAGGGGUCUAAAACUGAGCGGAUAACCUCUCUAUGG RNA 2: GGGAAUGGAUCCACAUCUACGAAUUCGUAUCAUAGCGAGGUUAUCCGCUCACCGAGAUCGGAAGAGCACACGU | 7.24
target 1 insG 3' of 8,insC 3' of 1 (mixed) RNA 1: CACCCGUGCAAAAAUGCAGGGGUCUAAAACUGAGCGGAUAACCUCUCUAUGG RNA 2: GGGAAUGGAUCCACAUCUACGAAUUCGUACCAUAGAGAGGUUAUGCCGCUCACCCGAGAUCGGAAGAGCACACGU | 7.94

Next binder, pKd to be filled in.
Task: So what does the record say about pKd for target 2 MT 5'PFS UGC 3'PFS UAC (mixed) RNA 1: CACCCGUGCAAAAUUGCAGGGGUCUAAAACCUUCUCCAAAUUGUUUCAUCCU RNA 2: GGGAAUGGAUCCACAUCUACGAAUUCUGCAGGAUGAAACAAUUUGGAGAAGUACAGAUCGGAAGAGCACACGU ?
Result: 7.68
